In this section we review reported Ret values for a set of molecules.
# Organism: Rattus norvegicus
# method-notes: Open TG-GATES - Regimen: Daily Repeat
# Type: toxicity, organism-based, Sprague-Dawley
# Set-up: regimen Daily Repeat, gender Male, age 6 weeks
# assay-conditions: in vivo, po, 300 mg/kg, […], tissue Blood, route gavage, dose level Middle, time 28 day
Report only the number, with the unit % understood.

COC(=O)C1=C(C)NC(C)=C(C(=O)OC)C1c1ccccc1[N+](=O)[O-] [NIFEDIPINE] | 10.7
CN/C(=N/CCSCc1nc[nH]c1C)NC#N [CIMETIDINE] | 2.5
Cc1nnc2n1-c1ccc(Cl)cc1C(c1ccccc1Cl)=NC2 [TRIAZOLAM] | 2.3
CNC(=C[N+](=O)[O-])NCCSCc1ccc(CN(C)C)o1 [RANITIDINE] | 2.2
CCOc1ccc(NC(C)=O)cc1 [PHENACETIN] | 4.9

Below: the item to evaluate.
Ret in this record for O=C(OC[C@H]1O[C@@H](OC(=O)c2cc(O)c(O)c(OC(=O)c3cc(O)c(O)c(O)c3)c2)[C@H](OC(=O)c2cc(O)c(O)c(OC(=O)c3cc(O)c(O)c(O)c3)c2)[C@@H](OC(=O)c2cc(O)c(O)c(OC(=O)c3cc(O)c(O)c(O)c3)c2)[C@@H]1OC(=O)c1cc(O)c(O)c(OC(=O)c2cc(O)c(O)c(O)c2)c1)c1cc(O)c(O)c(OC(=O)c2cc(O)c(O)c(O)c2)c1 [TANNIC ACID] : 3

* * *

# Organism: Rattus norvegicus
# method-notes: Open TG-GATES - Regimen: Daily Repeat
# Assay type: toxicity, organism-based, Sprague-Dawley
# Design: regimen Daily Repeat, gender Male, age 6 weeks
# assay-conditions: in vivo, po, 0 mg/kg, 72 h, tissue Blood, route gavage, dose level Control, time 3 day
For each record, check the reported WBC: if it is below 100 x10_2/uL write met, else write not met.

Worked examples follow.
Nc1c2c(nc3ccccc13)CCCC2 | not met
COC(=O)C1=C(C)NC(C)=C(C(=O)OC)C1c1ccccc1[N+](=O)[O-] | met
CCOc1ccc(NC(C)=O)cc1 | met

Q: Strictly below 100 x10_2/uL in WBC? CNC(=C[N+](=O)[O-])NCCSCc1ccc(CN(C)C)o1
Ans: met

Q: Strictly below 100 x10_2/uL in WBC? CN(C)CCC(c1ccc(Cl)cc1)c1ccccn1 (centres undefined)
Ans: met

Q: Strictly below 100 x10_2/uL in WBC? Brc1ccccc1
Ans: met

* * *

# Species: Rattus norvegicus
# method-notes: Open TG-GATES - Regimen: Daily Repeat
# Assay type: toxicity, organism-based, Sprague-Dawley
# Parameters: regimen Daily Repeat, gender Male, age 6 weeks
# assay-conditions: in vivo, po, 100 mg/kg, […], tissue Plasma, route gavage, dose level Low, time 28 day
observed-property: TP (g/dL)
Report only the number, with the unit g/dL understood.

Please review the entries below; each comes with its answer.
COC(=O)C1=C(C)NC(C)=C(C(=O)OC)C1c1ccccc1[N+](=O)[O-] | 6.1
CNC(=C[N+](=O)[O-])NCCSCc1ccc(CN(C)C)o1 | 6.3
O=C(OC[C@H]1O[C@@H](OC(=O)c2cc(O)c(O)c(OC(=O)c3cc(O)c(O)c(O)c3)c2)[C@H](OC(=O)c2cc(O)c(O)c(OC(=O)c3cc(O)c(O)c(O)c3)c2)[C@@H](OC(=O)c2cc(O)c(O)c(OC(=O)c3cc(O)c(O)c(O)c3)c2)[C@@H]1OC(=O)c1cc(O)c(O)c(OC(=O)c2cc(O)c(O)c(O)c2)c1)c1cc(O)c(O)c(OC(=O)c2cc(O)c(O)c(O)c2)c1 | 6.2
Cc1nnc2n1-c1ccc(Cl)cc1C(c1ccccc1Cl)=NC2 | 6.2
CCOc1ccc(NC(C)=O)cc1 | 6.4

Below: the item to evaluate.
TP in this record for CN/C(=N/CCSCc1nc[nH]c1C)NC#N : 6

* * *

# Species: Rattus norvegicus
# method-notes: Open TG-GATES - Regimen: Single
# Assay type: toxicity, organism-based, Sprague-Dawley
# Design: regimen Single, gender Male, age 6 weeks
# assay-conditions: in vivo, po, 0 mg/kg, 6 h, tissue Plasma, route gavage, dose level Control
In this section we review reported gamma-GTP values for a set of molecules.
Report only the number, with the unit IU/L understood.

CN1C(=O)CCS(=O)(=O)C1c1ccc(Cl)cc1 (configuration not stated) | 1.4

Below: the item to evaluate.
gamma-GTP in this record for O=C(OC[C@H]1O[C@@H](OC(=O)c2cc(O)c(O)c(OC(=O)c3cc(O)c(O)c(O)c3)c2)[C@H](OC(=O)c2cc(O)c(O)c(OC(=O)c3cc(O)c(O)c(O)c3)c2)[C@@H](OC(=O)c2cc(O)c(O)c(OC(=O)c3cc(O)c(O)c(O)c3)c2)[C@@H]1OC(=O)c1cc(O)c(O)c(OC(=O)c2cc(O)c(O)c(O)c2)c1)c1cc(O)c(O)c(OC(=O)c2cc(O)c(O)c(O)c2)c1 : 2.2

* * *

# Species on record: Rattus norvegicus
# method-notes: Open TG-GATES - Regimen: Single
# Assay type: toxicity, organism-based, Sprague-Dawley
# Set-up: regimen Single, gender Male, age 6 weeks
# assay-conditions: in vivo, po, 1000 mg/kg, 6 h, tissue Liver, route gavage, dose level High
For each record, check the reported LIVER: if it is below 8 g write Satisfied, else write Not satisfied.

Worked examples follow.
COC(=O)C1=C(C)NC(C)=C(C(=O)OC)C1c1ccccc1[N+](=O)[O-] | Satisfied
CNC(=C[N+](=O)[O-])NCCSCc1ccc(CN(C)C)o1 | Not satisfied
O=C(OC[C@H]1O[C@@H](OC(=O)c2cc(O)c(O)c(OC(=O)c3cc(O)c(O)c(O)c3)c2)[C@H](OC(=O)c2cc(O)c(O)c(OC(=O)c3cc(O)c(O)c(O)c3)c2)[C@@H](OC(=O)c2cc(O)c(O)c(OC(=O)c3cc(O)c(O)c(O)c3)c2)[C@@H]1OC(=O)c1cc(O)c(O)c(OC(=O)c2cc(O)c(O)c(O)c2)c1)c1cc(O)c(O)c(OC(=O)c2cc(O)c(O)c(O)c2)c1 | Satisfied

Q: Strictly below 8 g in LIVER? Cc1nnc2n1-c1ccc(Cl)cc1C(c1ccccc1Cl)=NC2
Ans: Not satisfied

Q: Strictly below 8 g in LIVER? CN/C(=N/CCSCc1nc[nH]c1C)NC#N
Ans: Not satisfied

* * *

In this section we review reported Lym values for a set of compounds.
# Organism: Rattus norvegicus
# method-notes: Open TG-GATES - Regimen: Single
# Assay type: toxicity, organism-based, Sprague-Dawley
# Set-up: regimen Single, gender Male, age 6 weeks
# assay-conditions: in vivo, po, 0 mg/kg, 24 h, tissue Blood, route gavage, dose level Control

Cc1nnc2n1-c1ccc(Cl)cc1C(c1ccccc1Cl)=NC2 | 78%
CC(C)NNC(=O)c1ccncc1 | 77.8%
NC1=NC(=O)C(c2ccccc2)O1 (stereo unspecified) | 74.2%
CNC(=C[N+](=O)[O-])NCCSCc1ccc(CN(C)C)o1 | 83.6%
CN1C(=O)CCS(=O)(=O)C1c1ccc(Cl)cc1 (stereo unspecified) | 78.8%

Below: the item to evaluate.
Lym in this record for CN/C(=N/CCSCc1nc[nH]c1C)NC#N : 81.4%

* * *

# Species: Rattus norvegicus
# method-notes: Open TG-GATES - Regimen: Single
# Type: toxicity, organism-based, Sprague-Dawley
# Design: regimen Single, gender Male, age 6 weeks
# assay-conditions: in vivo, po, 1000 mg/kg, 9 h, tissue Plasma, route gavage, dose level High
observed-property: RALB (g/dL)
Report only the number, with the unit g/dL understood.

Please review the entries below; each comes with its answer.
COC(=O)C1=C(C)NC(C)=C(C(=O)OC)C1c1ccccc1[N+](=O)[O-] | 2.6
O=C(OC[C@H]1O[C@@H](OC(=O)c2cc(O)c(O)c(OC(=O)c3cc(O)c(O)c(O)c3)c2)[C@H](OC(=O)c2cc(O)c(O)c(OC(=O)c3cc(O)c(O)c(O)c3)c2)[C@@H](OC(=O)c2cc(O)c(O)c(OC(=O)c3cc(O)c(O)c(O)c3)c2)[C@@H]1OC(=O)c1cc(O)c(O)c(OC(=O)c2cc(O)c(O)c(O)c2)c1)c1cc(O)c(O)c(OC(=O)c2cc(O)c(O)c(O)c2)c1 | 3.7
CNC(=C[N+](=O)[O-])NCCSCc1ccc(CN(C)C)o1 | 3.4
Cc1nnc2n1-c1ccc(Cl)cc1C(c1ccccc1Cl)=NC2 | 2.5

Below: the item to evaluate.
RALB in this record for CN/C(=N/CCSCc1nc[nH]c1C)NC#N : 3.5

* * *

In this section we review reported Lym values for a set of compounds.
# Organism: Rattus norvegicus
# method-notes: Open TG-GATES - Regimen: Single
# Type: toxicity, organism-based, Sprague-Dawley
# Set-up: regimen Single, gender Male, age 6 weeks
# assay-conditions: in vivo, po, 1000 mg/kg, 9 h, tissue Blood, route gavage, dose level High
Report only the number, with the unit % understood.

COC(=O)C1=C(C)NC(C)=C(C(=O)OC)C1c1ccccc1[N+](=O)[O-] | 74

Below: the item to evaluate.
Lym in this record for O=C(OC[C@H]1O[C@@H](OC(=O)c2cc(O)c(O)c(OC(=O)c3cc(O)c(O)c(O)c3)c2)[C@H](OC(=O)c2cc(O)c(O)c(OC(=O)c3cc(O)c(O)c(O)c3)c2)[C@@H](OC(=O)c2cc(O)c(O)c(OC(=O)c3cc(O)c(O)c(O)c3)c2)[C@@H]1OC(=O)c1cc(O)c(O)c(OC(=O)c2cc(O)c(O)c(O)c2)c1)c1cc(O)c(O)c(OC(=O)c2cc(O)c(O)c(O)c2)c1 : 73

Data provenance is ChEMBL document CHEMBL3885861.
